Answer each item with its documented pIC50.
- ASSAY TARGET: hQC (Homo sapiens)
- Sequence (Q16769 29-361): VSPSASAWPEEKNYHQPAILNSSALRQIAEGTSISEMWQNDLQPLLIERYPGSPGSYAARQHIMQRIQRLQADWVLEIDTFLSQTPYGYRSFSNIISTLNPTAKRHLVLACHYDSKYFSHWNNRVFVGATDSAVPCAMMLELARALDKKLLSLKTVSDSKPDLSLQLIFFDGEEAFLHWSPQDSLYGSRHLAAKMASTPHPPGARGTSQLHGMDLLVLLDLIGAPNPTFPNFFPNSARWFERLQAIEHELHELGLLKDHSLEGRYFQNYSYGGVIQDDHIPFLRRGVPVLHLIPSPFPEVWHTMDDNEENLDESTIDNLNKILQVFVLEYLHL
- PROTOCOL SUMMARY: Fluorometric assay of glutaminyl cyclase (QC) inhibition, H-Gln-βNA or H-Gln-AMC substrate
- Format: biochemical
- SETTINGS: read-out: IC50
Give bare numbers, as −log10 of the molar value.

Known results for molecules:
{"MOLECULE": "CC1=CC(C)C(C2/C(=N/C(C)C(C)(C)C)NC(=S)N2c2ccc3nc[nH]c3c2)CC1 (centres unmarked) [Compound 276]", "pIC50": 5.12}
{"MOLECULE": "CC(C)C1/C(=N\\C(C)(C)CC(C)(C)C)NC(=S)N1c1ccc2[nH]cnc2c1 (centres unmarked)", "pIC50": 5.17}
{"MOLECULE": "O=C(C/N=C1\\NC(=O)N(CCCn2ccnc2)C1c1cccc(F)c1F)N1CCc2ccccc2C1 (centres unmarked)", "pIC50": 5.40}
{"MOLECULE": "O=C1N/C(=N/CCc2c[nH]c3ccccc23)C(CO)N1CCCn1ccnc1 (centres unmarked)", "pIC50": 5.07}
{"MOLECULE": "O=C1N/C(=N\\C(Cc2ccccc2)c2ccccc2)C(c2cccc(Br)c2)N1c1ccc2[nH]cnc2c1 (centres unmarked)", "pIC50": 8.40}
{"MOLECULE": "Cc1cccc(C2/C(=N\\Cn3nnc4ccccc43)NC(=S)N2c2ccc3nc[nH]c3c2)n1 (centres unmarked)", "pIC50": 5.40}
{"MOLECULE": "Cc1cccc(C2/C(=N/CC(=O)N3Cc4ccccc4C3)NC(=O)N2CCCn2ccnc2)c1O (centres unmarked)", "pIC50": 5.02}

Turning now to a further molecule:
Query block: Any idea what pIC50 was measured for O=C1N/C(=N\CCCc2ccccc2)C(c2coc3ccccc3c2=O)N1c1ccc2[nH]cnc2c1 (centres unmarked) ?
Result block: 5.89

* * *

Field: IC50. Provide a value for each of the molecules that follow.
- ASSAY TARGET: hQC (Homo sapiens)
- PROTOCOL SUMMARY: Fluorometric assay of glutaminyl cyclase (QC) inhibition, H-Gln-βNA or H-Gln-AMC substrate
- Assay type: biochemical
- SETTINGS: read-out: IC50
- Experimental: All compounds were immediately tested regarding their activity as hQC inhibitors. The purity of the compounds was determined by HPLC-MS. The IC50 value against hQC was measured using the fluorescent assay. All measurements were performed with a BioAssay Reader HTS-7000Plus for microplates (Perkin Elmer) at 30° C. QC activity was evaluated fluorometrically using H-Gln-βNA. […] QC activity was determined from a standard curve of β-naphthylamine under assay conditions. […]
Give bare numbers, in nM.

For orientation, consider the following solved cases.
{"MOLECULE": "S=C1N/C(=N/CCCc2ccccc2)C(c2cc3ccccc3s2)N1c1ccc2[nH]cnc2c1 (centres unmarked) [Compound 258]", "ASSAY TARGET": "hQC (Homo sapiens)", "IC50 / nM": 3100}
{"MOLECULE": "O=C(C/N=C1/NC(=O)N(c2ccc3nc[nH]c3c2)C1c1ccc2[nH]ccc2c1)N1CCC(O)CC1 (centres unmarked) [Compound 248]", "ASSAY TARGET": "hQC (Homo sapiens)", "IC50 / nM": 400}
{"MOLECULE": "O=C1CCCN1CCC/N=C1\\NC(=O)N(c2ccc3[nH]cnc3c2)C1c1ccnc2ccccc12 (centres unmarked) [Compound 247]", "ASSAY TARGET": "hQC (Homo sapiens)", "IC50 / nM": 3100}
{"MOLECULE": "O=C1CCCN1CCC/N=C1/NC(=O)N(c2ccc3[nH]cnc3c2)C1c1cc2ccccc2s1 (centres unmarked) [Compound 166]", "ASSAY TARGET": "hQC (Homo sapiens)", "IC50 / nM": 400}
{"MOLECULE": "O=C(C/N=C1/NC(=O)N(c2ccc3[nH]cnc3c2)C1C1=CCCCC1)N1CCSCC1 (centres unmarked) [Compound 265]", "ASSAY TARGET": "hQC (Homo sapiens)", "IC50 / nM": 8500}
{"MOLECULE": "CN(C)c1ccc(C2/C(=N\\Cn3nnc4ccccc43)NC(=O)N2c2ccc3[nH]cnc3c2)cc1 (centres unmarked) [Compound 322]", "ASSAY TARGET": "hQC (Homo sapiens)", "IC50 / nM": 1300}

Would you mind listing IC50 for each of the following molecules?
1. COc1cc(C/N=C2\NC(=O)N(CCCn3ccnc3)C2c2ccccc2F)cc(OC)c1OC (centres unmarked) [Compound 28]
2. O=C(CN=C1NC(=S)N(c2ccc3nc[nH]c3c2)C1c1cc(Br)cs1)N1CCCCC1 (centres unmarked) [Compound 187]

Result block:
1: 3100; 2: 400
